- assayDetails: Inhibitor binding assay of SEQ ID NO 3 variants, Inhibitor 2, in Model B detergent
- Assay type: biochemical
- appliedConditions: in Model B relative to SEQ ID NO 3; relative Ki, IF>1.0 = lower Ki
- Text: Where E is the protease, I is the inhibitor and EI is the protease-inhibitor complex. […] The concentration of enzyme-inhibitor in the detergent solution is then given by: where Etot is the total protease concentration ([Etot]=[E]+[EI]), Itot is the total inhibitor concentration ([Itot]=[I]+[EI]), and Ki is the equilibrium binding constant for the reaction. The measured slopes V are given by: where V0 is the slope without inhibitor added. […]
readoutType: inhibitor 2 binding constant improvement factors (IF)
Output spec: single numeric token, no unit.

Measured inhibitor 2 binding constant improvement factors (IF), S111D: protease variant of SEQ ID NO 3 (protein, listed as Bacillus sp.) AVPSTQTPWGIKSIYNDQSITKTTGGSGIKVAVLDTGVYTSHLDLAGSAEQCKDFTQSNPLVDGSCTDRQGHGTHVAGTVLAHGGSNGQGVYGVAPQAKLWAYKVLGDNGDGYSDDIAAAIRHVADEASRTGSKVVINMSLGSSAKDSLIASAVDYAYGKGVLIVAAAGNSGSGSNTIGFPGGLVNAVAVAALENVQQNGTYRVADFSSRGNPATAGDYIIQERDIEVSAPGASVESTWYTGGYNTISGTSMATPHVAGLAAKIWSANTSLSHSQLRTELQNRAKVYDIKGGIGAGTGDDYASGFGYPRVK : 1.53
